# assay notes: AUC in specific pathogen free ICR mouse at 10 mg/kg, po by LC/TSQ-MS analysis
# Type: ADME, organism-based
# assay setup: in vivo
reported property: AUC (ng·h/mL)

* O=c1nc(N2C[C@@H]3[C@H](C2)[C@H]3NCC2CCCCC2)sc2c([N+](=O)[O-])cc(C(F)(F)F)cc12 | 791

* * *

# assay notes: Mean residence time in specific pathogen free ICR mouse at 2 mg/kg, iv by LC/TSQ-MS analysis
# Format: ADME, organism-based
# assay setup: in vivo
reported property: MRT (h)

* O=c1nc(N2C[C@@H]3[C@H](C2)[C@H]3NCC2CCCCC2)sc2c([N+](=O)[O-])cc(C(F)(F)F)cc12 | 2.24

* * *

Recorded Stability for the following molecules
# assay notes: Stability of the compound in plasma (unknown origin)
# Assay type: ADME, cell-free
reported property: Stability (%)

* O=c1nc(N2C[C@@H]3[C@H](C2)[C@H]3NCC2CCCCC2)sc2c([N+](=O)[O-])cc(C(F)(F)F)cc12 | 91.4
* O=c1nc(N2CCN(CC3CCCCC3)CC2)sc2c([N+](=O)[O-])cc(C(F)(F)F)cc12 [MACOZINONE] | 88.7
* O=c1nc(N2CCC3(CC2)CC3)sc2c([N+](=O)[O-])cc(C(F)(F)F)cc12 | 93.3
* O=c1nc(N2CC3CCC2CN3CC2CCCCC2)sc2c([N+](=O)[O-])cc(C(F)(F)F)cc12 (stereo not given) | 102
* O=c1nc(N2C[C@H]3C[C@@H]2CN3CC2CCCCC2)sc2c([N+](=O)[O-])cc(C(F)(F)F)cc12 | 81.9

* * *

# assay notes: AUC in specific pathogen free ICR mouse at 2 mg/kg, iv by LC/TSQ-MS analysis
# Type: ADME, organism-based
# assay setup: in vivo
reported property: AUC (ng·h/mL)

- O=c1nc(N2C[C@@H]3[C@H](C2)[C@H]3NCC2CCCCC2)sc2c([N+](=O)[O-])cc(C(F)(F)F)cc12: 576

* * *

# assay notes: Mean residence time in specific pathogen free ICR mouse at 10 mg/kg, po by LC/TSQ-MS analysis
# Type: ADME, organism-based
# assay setup: in vivo
reported property: MRT (h)

- O=c1nc(N2C[C@@H]3[C@H](C2)[C@H]3NCC2CCCCC2)sc2c([N+](=O)[O-])cc(C(F)(F)F)cc12: 3.09

* * *

# assay notes: Cmax in specific pathogen free ICR mouse at 10 mg/kg, po by LC/TSQ-MS analysis
# Assay type: ADME, organism-based
# Set-up: dose 10 mg/kg, route oral
# assay setup: in vivo
reported property: Cmax (ng/mL)

* O=c1nc(N2C[C@@H]3[C@H](C2)[C@H]3NCC2CCCCC2)sc2c([N+](=O)[O-])cc(C(F)(F)F)cc12 | 195

* * *

# assay notes: Intrinsic clearance in human liver microsomes at 2.5 uL preincubated for 5 mins followed by NADPH addition and measured by LC-MS/MS analysis
# Type: ADME, Microsome
# assay setup: read-out: CLH
Recorded microsomal CLint for the following compounds
reported property: microsomal CLint (µL/min/mg)

* O=c1nc(N2CCC3(CC2)CC3)sc2c([N+](=O)[O-])cc(C(F)(F)F)cc12 | 16.1
* O=c1nc(N2CCN(CC3CCCCC3)CC2)sc2c([N+](=O)[O-])cc(C(F)(F)F)cc12 | 16.5
* O=c1nc(N2C[C@H]3C[C@@H]2CN3CC2CCCCC2)sc2c([N+](=O)[O-])cc(C(F)(F)F)cc12 | 26.1
* O=c1nc(N2CC3CCC2CN3CC2CCCCC2)sc2c([N+](=O)[O-])cc(C(F)(F)F)cc12 (stereo not given) | 22.7
* O=c1nc(N2C[C@@H]3[C@H](C2)[C@H]3NCC2CCCCC2)sc2c([N+](=O)[O-])cc(C(F)(F)F)cc12 | 9.05

* * *

Recorded half-life for the following compounds
# assay notes: Half life in […] microsomes at 2.5 uL preincubated for 5 mins followed by NADPH addition and measured by LC-MS/MS analysis
# Assay type: ADME, Liver, Microsome
reported property: half-life (min)

- O=c1nc(N2CCN(CC3CCCCC3)CC2)sc2c([N+](=O)[O-])cc(C(F)(F)F)cc12: 43
- O=c1nc(N2CC3CCC2CN3CC2CCCCC2)sc2c([N+](=O)[O-])cc(C(F)(F)F)cc12 (stereo not given): 30.6
- O=c1nc(N2C[C@@H]3[C@H](C2)[C@H]3NCC2CCCCC2)sc2c([N+](=O)[O-])cc(C(F)(F)F)cc12: 76.6
- O=c1nc(N2C[C@H]3C[C@@H]2CN3CC2CCCCC2)sc2c([N+](=O)[O-])cc(C(F)(F)F)cc12: 26.6
- O=c1nc(N2CCC3(CC2)CC3)sc2c([N+](=O)[O-])cc(C(F)(F)F)cc12: 43

* * *

# assay notes: Kinetic aqueous solubility of the compound in pH 7.4 phosphate buffer incubated for 4.5 hrs under shaking condition by LC-MS/MS analysis
# Type: physicochemical
# assay setup: read-out: Kinetic_solubility
Recorded solubility kinetic at 4.5 h for the following molecules
reported property: solubility kinetic at 4.5 h (µg/mL)

- O=c1nc(N2C[C@H]3C[C@@H]2CN3CC2CCCCC2)sc2c([N+](=O)[O-])cc(C(F)(F)F)cc12: 14.6
- O=c1nc(N2C[C@@H]3[C@H](C2)[C@H]3NCC2CCCCC2)sc2c([N+](=O)[O-])cc(C(F)(F)F)cc12: 4.8
- O=c1nc(N2CCC3(CC2)CC3)sc2c([N+](=O)[O-])cc(C(F)(F)F)cc12: 0.3

* * *

# assay notes: Intrinsic clearance in mouse liver microsomes at 2.5 uL preincubated for 5 mins followed by NADPH addition and measured by LC-MS/MS analysis
# Type: ADME, Microsome
# assay setup: read-out: CLH
Class TRUE: microsomal CLint at least 30 µL/min/mg. Class FALSE: microsomal CLint below 30 µL/min/mg.

* O=c1nc(N2C[C@@H]3[C@H](C2)[C@H]3NCC2CCCCC2)sc2c([N+](=O)[O-])cc(C(F)(F)F)cc12 | FALSE
* O=c1nc(N2CC3CCC2CN3CC2CCCCC2)sc2c([N+](=O)[O-])cc(C(F)(F)F)cc12 (stereo not given) | FALSE
* O=c1nc(N2C[C@H]3C[C@@H]2CN3CC2CCCCC2)sc2c([N+](=O)[O-])cc(C(F)(F)F)cc12 | TRUE
* O=c1nc(N2CCN(CC3CCCCC3)CC2)sc2c([N+](=O)[O-])cc(C(F)(F)F)cc12 | FALSE
* O=c1nc(N2CCC3(CC2)CC3)sc2c([N+](=O)[O-])cc(C(F)(F)F)cc12 | TRUE

* * *

# target desc: Decaprenylphosphoryl-beta-D-ribose oxidase (Mycobacterium tuberculosis (strain ATCC 25618 / H37Rv))
# assay notes: Inhibition of Mycobacterium tuberculosis H37Rv DprE1 assessed as reduction in bacterial growth measured after 7 to 10 days by broth microdilution method
reported property: MIC (µM)

• O=c1nc(N2CCN(CC3CCCCC3)CC2)sc2c([N+](=O)[O-])cc(C(F)(F)F)cc12 = 0.002
• O=c1nc(N2CCC3(CC2)CC3)sc2c([N+](=O)[O-])cc(C(F)(F)F)cc12 = 0.016
• O=c1nc(N2CCCC3(CCCCN3CC3CCCCC3)C2)sc2c([N+](=O)[O-])cc(C(F)(F)F)cc12 (stereo not drawn) = 1.02
• O=c1nc(N2C[C@H]3C[C@@H](C2)N3CC2CCCCC2)sc2c([N+](=O)[O-])cc(C(F)(F)F)cc12 = 0.128
• O=c1nc(N2CCC3(CCN(CC4CCCCC4)C3)CC2)sc2c([N+](=O)[O-])cc(C(F)(F)F)cc12 = 0.128
• O=c1nc(N2[C@@H]3C[C@H]2CN(CC2CCCCC2)C3)sc2c([N+](=O)[O-])cc(C(F)(F)F)cc12 = 0.128
• O=c1nc(N2C[C@@H]3[C@H](C2)[C@H]3NCC2CCCCC2)sc2c([N+](=O)[O-])cc(C(F)(F)F)cc12 = 0.032
• O=c1nc(N2CCC3(CC2)CN(CC2CCCCC2)C3)sc2c([N+](=O)[O-])cc(C(F)(F)F)cc12 = 0.512

* * *

# assay notes: Half life in mouse liver microsomes at 2.5 uL preincubated for 5 mins followed by NADPH addition and measured by LC-MS/MS analysis
# Type: ADME, Microsome
Class met: half-life at least 8 min. Class not met: half-life below 8 min.

• O=c1nc(N2CCC3(CC2)CC3)sc2c([N+](=O)[O-])cc(C(F)(F)F)cc12 = met
• O=c1nc(N2C[C@H]3C[C@@H]2CN3CC2CCCCC2)sc2c([N+](=O)[O-])cc(C(F)(F)F)cc12 = not met
• O=c1nc(N2CC3CCC2CN3CC2CCCCC2)sc2c([N+](=O)[O-])cc(C(F)(F)F)cc12 (stereo not given) = met
• O=c1nc(N2C[C@@H]3[C@H](C2)[C@H]3NCC2CCCCC2)sc2c([N+](=O)[O-])cc(C(F)(F)F)cc12 = met
• O=c1nc(N2CCN(CC3CCCCC3)CC2)sc2c([N+](=O)[O-])cc(C(F)(F)F)cc12 [MACOZINONE] = met
